Sourced from the supplement of paper PMC6555819

The reader will find reported PBM binding z-score values listed item by item below.
System: RXRa homodimer (NR concentration 180 nM)
Assay: PBM binding z-score (relative to random genomic background probes); higher = stronger binding; sequences stand for … in GC…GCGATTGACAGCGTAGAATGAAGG
Parameter: PBM binding z-score

{"Seq string": "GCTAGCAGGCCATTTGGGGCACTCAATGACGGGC", "Observed result": -0.112}
{"Seq string": "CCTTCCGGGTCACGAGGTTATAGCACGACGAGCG", "Observed result": 7.05}
{"Seq string": "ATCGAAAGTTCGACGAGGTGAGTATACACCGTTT", "Observed result": 1.28}
{"Seq string": "TCTAGTTGGTCAAAGGTCACACAATCGAAATGCG", "Observed result": 8.48}
{"Seq string": "CGAACTAGGTCCAGGACAGTGAATCTCCGCACGC", "Observed result": -0.387}
{"Seq string": "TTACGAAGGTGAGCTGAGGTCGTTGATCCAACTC", "Observed result": 1.27}
{"Seq string": "TATACAGGGTAAAAGGCCAGAGTACGAATGTCGA", "Observed result": 1.11}
{"Seq string": "CCAGTCAGGTGAGAAGGTAACTCAGCCTCGATTA", "Observed result": 0.153}
{"Seq string": "GCAGACAGGTGGAACGCAGGTAACTCAGGGTGGC", "Observed result": -0.144}
{"Seq string": "GCGACTCGGGCAAAGCAGGTTACCATAAGGTTGG", "Observed result": 0.252}
{"Seq string": "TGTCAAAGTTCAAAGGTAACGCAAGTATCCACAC", "Observed result": 7.38}
{"Seq string": "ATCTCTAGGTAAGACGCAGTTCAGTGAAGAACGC", "Observed result": -0.00227}
{"Seq string": "CAAACTAGGTCGAGAGGTCAAAGTCCGCTTCCCG", "Observed result": 6.17}
{"Seq string": "TCTCGGAGGATACGAAAGGTCAGAGCTCGACATC", "Observed result": 4.38}
{"Seq string": "TCTATTAGTTGAAGGGTAACCGACGAGTCCGTTT", "Observed result": 0.736}
{"Seq string": "CCTAGCAGGCCAATCTGGGCCACTCAAGGCTTGA", "Observed result": -0.923}
{"Seq string": "CAAACTAGGTCACCGGAAGGTTAAAGTCCGCATG", "Observed result": 4.2}
{"Seq string": "CAGCCTAGGTCAGGGCCAGGATAGGAGGAACGTT", "Observed result": 1.53}
{"Seq string": "GCTAGCAGGTCATTTGGGTCACTCAATGACGGGC", "Observed result": 4.23}
{"Seq string": "GCGACTGGGGCATCAACAGGTTACCATAACTTAA", "Observed result": 0.415}
{"Seq string": "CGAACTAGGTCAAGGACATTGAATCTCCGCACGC", "Observed result": 2.91}
{"Seq string": "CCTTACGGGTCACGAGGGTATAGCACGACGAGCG", "Observed result": 6.79}
{"Seq string": "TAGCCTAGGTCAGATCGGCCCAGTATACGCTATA", "Observed result": 1.35}
{"Seq string": "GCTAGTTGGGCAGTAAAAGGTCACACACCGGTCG", "Observed result": 5.38}
{"Seq string": "CCTTACGGGTCACTGAAAGGTTATAGCATTTGGA", "Observed result": 5.63}
{"Seq string": "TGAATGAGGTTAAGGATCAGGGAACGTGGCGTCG", "Observed result": 2.62}
